Each entry below lists one item and its recorded pKi value.
STUDY SYSTEM: CYP3A4 (Homo sapiens)
Sequence (P08684 whole entry): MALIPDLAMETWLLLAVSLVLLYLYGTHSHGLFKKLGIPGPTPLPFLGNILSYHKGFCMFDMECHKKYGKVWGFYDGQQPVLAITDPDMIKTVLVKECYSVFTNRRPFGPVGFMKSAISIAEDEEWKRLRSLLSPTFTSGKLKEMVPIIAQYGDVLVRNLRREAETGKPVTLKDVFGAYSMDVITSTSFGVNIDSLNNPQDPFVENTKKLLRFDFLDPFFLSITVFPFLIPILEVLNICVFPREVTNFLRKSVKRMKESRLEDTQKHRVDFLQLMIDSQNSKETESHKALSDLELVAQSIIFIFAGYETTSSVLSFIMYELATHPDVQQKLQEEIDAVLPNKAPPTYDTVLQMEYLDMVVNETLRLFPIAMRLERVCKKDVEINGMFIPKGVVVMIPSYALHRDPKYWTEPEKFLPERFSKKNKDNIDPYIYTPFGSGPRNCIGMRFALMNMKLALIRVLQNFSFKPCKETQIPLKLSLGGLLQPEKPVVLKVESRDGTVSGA
ASSAY TEXT: Determination of compound Kiapp against recombinant CYP3A4 enzyme (BFC fluorescent substrate)
Format: biochemical
RUN PARAMETERS: Baculo. enzyme preparation, read-out: Kiapp (BFC, Baculo.)
pKi: −log10 of the molar value.

{"COMPOUND": "COc1cncc(NS(=O)(=O)c2ccccc2C(=O)NCc2ccc(F)c(F)c2)c1", "READING QUALIFIER": "=", "pKi": 8.12}
{"COMPOUND": "CC(C)(C)CNC(=O)c1ccccc1S(=O)(=O)Nc1cccnc1", "READING QUALIFIER": "=", "pKi": 6.21}
{"COMPOUND": "Cc1cncc(NS(=O)(=O)c2ccccc2C(=O)N(C)CCc2ccccc2)c1", "READING QUALIFIER": "=", "pKi": 7.26}
{"COMPOUND": "CCC(C)CNC(=O)c1ccccc1S(=O)(=O)Nc1cncc(C)c1 (stereo not drawn)", "READING QUALIFIER": "=", "pKi": 6.99}
{"COMPOUND": "CCCN(CC1CC1)C(=O)c1ccccc1S(=O)(=O)Nc1cccnc1", "READING QUALIFIER": "=", "pKi": 6.62}
{"COMPOUND": "CCCN(C)C(=O)c1ccccc1S(=O)(=O)Nc1cncc(OC)c1", "READING QUALIFIER": "=", "pKi": 6.79}
{"COMPOUND": "CCOCCNC(=O)c1ccccc1S(=O)(=O)Nc1cncc(C)c1", "READING QUALIFIER": "<", "pKi": 6.00}
{"COMPOUND": "CCCN(C(=O)c1ccccc1S(=O)(=O)Nc1cncc(OC)c1)C(C)C", "READING QUALIFIER": "=", "pKi": 7.05}
{"COMPOUND": "CCOc1cncc(NS(=O)(=O)c2ccccc2C(=O)N2CCCC(C)(C)C2)c1", "READING QUALIFIER": "=", "pKi": 7.23}

###

Each entry below lists one item and its recorded Ki value.
STUDY SYSTEM: CYP3A4 (Homo sapiens)
ASSAY TEXT: Determination of compound Kiapp against recombinant CYP3A4 enzyme (BFC fluorescent substrate)
Type: biochemical
RUN PARAMETERS: Baculo. enzyme preparation, read-out: Kiapp (BFC, Baculo.)
MEASURED PARAMETER: Ki (nM)

{"COMPOUND": "Cc1ccncc1NS(=O)(=O)c1ccccc1C(=O)N(C)Cc1ccccc1 [Example 139]", "READING QUALIFIER": "=", "MEASUREMENT": 388}
{"COMPOUND": "Cc1cncc(NS(=O)(=O)c2ccccc2C(=O)NCc2ccc3c(c2)CCO3)c1 [Example 94]", "READING QUALIFIER": "=", "MEASUREMENT": 182}
{"COMPOUND": "COc1cncc(NS(=O)(=O)c2ccccc2C(=O)N(C)CCc2ccccc2)c1 [Example 370]", "READING QUALIFIER": "=", "MEASUREMENT": 52.9}
{"COMPOUND": "COc1cncc(NS(=O)(=O)c2ccccc2C(=O)NCc2ccc(Cl)c(F)c2)c1 [Example 132]", "READING QUALIFIER": "=", "MEASUREMENT": 40.6}
{"COMPOUND": "Cc1cncc(NS(=O)(=O)c2ccccc2C(=O)NC(C)(C)C)c1 [Example 354]", "READING QUALIFIER": "=", "MEASUREMENT": 305}
{"COMPOUND": "COc1cncc(NS(=O)(=O)c2ccccc2C(=O)N2CCC(C)CC2)c1 [Example 389]", "READING QUALIFIER": "=", "MEASUREMENT": 241}
{"COMPOUND": "CCOc1ccncc1NS(=O)(=O)c1ccccc1C(=O)N(C)Cc1ccccc1F [Example 124]", "READING QUALIFIER": "=", "MEASUREMENT": 136}
{"COMPOUND": "CN(Cc1ccc(C(F)(F)F)cc1)C(=O)c1ccccc1S(=O)(=O)Nc1cccnc1 [Example 140]", "READING QUALIFIER": "=", "MEASUREMENT": 160}
{"COMPOUND": "O=C(NCc1cccc(F)c1)c1ccccc1S(=O)(=O)Nc1cccnc1 [Example 43]", "READING QUALIFIER": "=", "MEASUREMENT": 269}
{"COMPOUND": "CCCCNC(=O)c1ccccc1S(=O)(=O)N(C)c1cccnc1 [Example 351]", "READING QUALIFIER": "=", "MEASUREMENT": 456}
{"COMPOUND": "Cc1cncc(NS(=O)(=O)c2ccccc2C(=O)N(C)CCc2ccccc2C)c1 [Example 154]", "READING QUALIFIER": "=", "MEASUREMENT": 11.5}
{"COMPOUND": "COc1cncc(NS(=O)(=O)c2ccccc2C(=O)NCc2c(Cl)cccc2Cl)c1 [Example 133]", "READING QUALIFIER": "=", "MEASUREMENT": 67.8}
{"COMPOUND": "COCCNC(=O)c1ccccc1S(=O)(=O)Nc1cncc(OC)c1 [Example 239]", "READING QUALIFIER": "=", "MEASUREMENT": 849}
{"COMPOUND": "CCC(CC)NC(=O)c1ccccc1S(=O)(=O)Nc1cncc(OC)c1 [Example 193]", "READING QUALIFIER": "=", "MEASUREMENT": 41.2}
{"COMPOUND": "COc1cncc(NS(=O)(=O)c2ccccc2C(=O)N(C)Cc2ccccc2)c1 [Example 372]", "READING QUALIFIER": "=", "MEASUREMENT": 79}
{"COMPOUND": "O=C(NCc1cccc2[nH]ccc12)c1ccccc1S(=O)(=O)Nc1cccnc1 [Example 52]", "READING QUALIFIER": "=", "MEASUREMENT": 560}
{"COMPOUND": "COc1cncc(NS(=O)(=O)c2ccccc2C(=O)N2CCC(O)CC2)c1 [Example 365]", "READING QUALIFIER": ">", "MEASUREMENT": 1000}
{"COMPOUND": "COc1cncc(NS(=O)(=O)c2ccccc2C(=O)N2CCC(OC)CC2)c1 [Example 366]", "READING QUALIFIER": "=", "MEASUREMENT": 553}

###

STUDY SYSTEM: CYP3A4 (Homo sapiens)
ASSAY TEXT: Determination of compound Kiapp against recombinant CYP3A4 enzyme (BFC fluorescent substrate)
Format: biochemical
RUN PARAMETERS: Super. enzyme preparation, read-out: Kiapp (BFC, Super.)
pKi: −log10 of the molar value.
Each entry below lists one item and its recorded pKi value.
MEASURED PARAMETER: pKi

{"COMPOUND": "COc1ccncc1NS(=O)(=O)c1ccccc1C(=O)N[C@H](C)C(C)C [Example 112]", "MEASURED PARAMETER": "pKi", "MEASUREMENT": 6.92}
{"COMPOUND": "CCCN(C(=O)c1ccccc1S(=O)(=O)Nc1cncc(OC)c1)C(C)C [Example 100]", "MEASURED PARAMETER": "pKi", "MEASUREMENT": 7.45}
{"COMPOUND": "O=C(NCc1cccc(F)c1)c1ccccc1S(=O)(=O)Nc1cccnc1 [Example 43]", "MEASURED PARAMETER": "pKi", "MEASUREMENT": 7.78}
{"COMPOUND": "COc1cncc(NS(=O)(=O)c2ccc(OC)cc2C(=O)NCc2ccc(F)cc2)c1 [Example 111]", "MEASURED PARAMETER": "pKi", "MEASUREMENT": 8.17}
{"COMPOUND": "CCOc1ccncc1NS(=O)(=O)c1ccccc1C(=O)NCCOC [Example 217]", "MEASURED PARAMETER": "pKi", "MEASUREMENT": 6.67}
{"COMPOUND": "CCOc1cncc(NS(=O)(=O)c2ccccc2C(=O)N(C)Cc2ccc(F)c(F)c2)c1 [Example 289]", "MEASURED PARAMETER": "pKi", "MEASUREMENT": 8.30}
{"COMPOUND": "COc1cncc(NS(=O)(=O)c2ccccc2C(=O)N(Cc2nccn2C)C(C)C)c1 [Example 97]", "MEASURED PARAMETER": "pKi", "MEASUREMENT": 6.80}
{"COMPOUND": "COc1cncc(NS(=O)(=O)c2ccccc2C(=O)NCc2ccccc2F)c1 [Example 378]", "MEASURED PARAMETER": "pKi", "MEASUREMENT": 7.73}
{"COMPOUND": "Cc1cncc(NS(=O)(=O)c2ccccc2C(=O)NCCOc2ccccc2)c1 [Example 229]", "MEASURED PARAMETER": "pKi", "MEASUREMENT": 7.61}

Source of measurements: patent US7868026B2
